Measured IC50, listed per entry.
System: Radical scavenging activity
test.method.notes: ABTS radical scavenging activity
Assay type: functional
Provide the reading as a plain figure in nM.

Previously resolved entries follow.
>>> recorded_value("CC(=O)c1c(-c2ccc(O)c(O)c2)oc2cc(/C=C/c3ccc(O)c(O)c3)oc(=O)c12")
7800
>>> recorded_value("CC1=CC(=O)[C@H](c2c(O)cc(/C=C/c3ccc(O)c(O)c3)oc2=O)[C@@H](c2ccc(O)c(O)c2)O1")
800
>>> recorded_value("COc1cc(/C=C/c2cc3oc(-c4ccc(O)c(O)c4)c(C(C)=O)c3c(=O)o2)ccc1O")
12300

[ask] Requested read-out: IC50. Entry: "O=C(O)/C=C/c1ccc(O)c(O)c1"
[reply] 2800

[ask] Requested read-out: IC50. Entry: "COc1cc(/C=C/c2cc(O)c([C@H]3C(=O)C=C(C)O[C@@H]3c3ccc(O)c(O)c3)c(=O)o2)ccc1O"
[reply] 1500
